Experimental Target: HLA-B*18:01
Test Method Notes: IEDB peptide-MHC binding, purified MHC/direct/fluorescence; filed as Kd, often an IC50 or EC50 that approximates it; bounds were set here for any values at or beyond the usual limits of such assays
Assay Context: source organism: Influenza A virus (A/camel/Mongolia/1982(H1N1))
Measured Metric: Kd

Task item: What measured Kd is associated with "MEYDAVATT" on HLA-B*18:01?
Reply: ≤ 1 nM

---

Experimental Target: HLA-A*23:01
Test Method Notes: IEDB peptide-MHC binding, purified MHC/competitive/radioactivity; filed as Kd, often an IC50 or EC50 that approximates it; bounds were set here for any values at or beyond the usual limits of such assays
Assay Context: source organism: Mammarenavirus guanaritoense
Measured Metric: Kd

{"columns": ["Seq Text", "Kd"],
 "data": [
  ["ILLNNPNLF", "0.423 µM"]
]}

Turning to the following sequence.
Task item: Fill in the blank: the reported Kd of "EDAQPGLLSY" is ____.
Reply: ≥ 70 µM

---

Experimental Target: HLA-B*53:01
Test Method Notes: IEDB peptide-MHC binding, purified MHC/competitive/radioactivity; filed as Kd, often an IC50 or EC50 that approximates it; bounds were set here for any values at or beyond the usual limits of such assays
Assay Context: source organism: Vaccinia virus WR
Measured Metric: Kd

A selection of reference data follows.
{"columns": ["Seq Text", "Experimental Target", "Measured Metric", "Readout Value"],
 "data": [
  ["TPNYMKLLVY", "HLA-B*53:01", "Kd", "0.952 µM"],
  ["IPYLRNYMVI", "HLA-B*53:01", "Kd", "0.895 µM"],
  ["ISIIVLFQR", "HLA-B*53:01", "Kd", "≥ 21.5 µM"]
]}

Turning to the following sequence.
Task item: Fill in the blank: the reported Kd of "EPISILDRI" is ____.
Reply: 0.194 µM

---

Experimental Target: HLA-A*02:02
Test Method Notes: IEDB peptide-MHC binding, purified MHC/competitive/radioactivity; filed as Kd, often an IC50 or EC50 that approximates it; bounds were set here for any values at or beyond the usual limits of such assays
Assay Context: source organism: Mammarenavirus juninense
Catalogue of sequences with associated Kd
Enter your answer as a number in nM; do not include the unit.

Task item: Fill in the blank: the reported Kd of "TSLGLLYTV" is ____.
Reply: 933

Task item: Also "LNIALVAVSL" ?
Reply: 179

---

Experimental Target: HLA-A*26:01
Test Method Notes: IEDB peptide-MHC binding, purified MHC/direct/fluorescence; filed as Kd, often an IC50 or EC50 that approximates it; bounds were set here for any values at or beyond the usual limits of such assays
Assay Context: source organism: Escherichia coli O6
pKd: −log10 of the molar value.
Measured Metric: pKd

Task item: Fill in the blank: the reported pKd of "TPVWHVTSA" is ____.
Reply: ≤ 4.70

---

Experimental Target: HLA-A*02:01
Test Method Notes: IEDB peptide-MHC binding, purified MHC/competitive/radioactivity; filed as Kd, often an IC50 or EC50 that approximates it; bounds were set here for any values at or beyond the usual limits of such assays
Assay Context: source organism: Vaccinia virus WR
Measured Metric: Kd (µM)
Enter your answer as a number in µM; do not include the unit.

{"columns": ["Seq Text", "Experimental Target", "Measured Metric", "Unit Abbreviation", "Readout Value"],
 "data": [
  ["KQYIVATLMK", "HLA-A*02:01", "Kd", "µM", 11.2]
]}

Task item: Fill in the blank: the reported Kd of "ISIIVLFQR" is ____.
Reply: 2.4

This collection of values is drawn from the Immune Epitope Database (IEDB).
